Where do the numbers come from? From patent US6107324A.

- testTarget: Wild Type Human 5HT2A Receptor (Homo sapiens)
- Construct: membranes
- Sequence (P28223 whole entry T25N/H452Y): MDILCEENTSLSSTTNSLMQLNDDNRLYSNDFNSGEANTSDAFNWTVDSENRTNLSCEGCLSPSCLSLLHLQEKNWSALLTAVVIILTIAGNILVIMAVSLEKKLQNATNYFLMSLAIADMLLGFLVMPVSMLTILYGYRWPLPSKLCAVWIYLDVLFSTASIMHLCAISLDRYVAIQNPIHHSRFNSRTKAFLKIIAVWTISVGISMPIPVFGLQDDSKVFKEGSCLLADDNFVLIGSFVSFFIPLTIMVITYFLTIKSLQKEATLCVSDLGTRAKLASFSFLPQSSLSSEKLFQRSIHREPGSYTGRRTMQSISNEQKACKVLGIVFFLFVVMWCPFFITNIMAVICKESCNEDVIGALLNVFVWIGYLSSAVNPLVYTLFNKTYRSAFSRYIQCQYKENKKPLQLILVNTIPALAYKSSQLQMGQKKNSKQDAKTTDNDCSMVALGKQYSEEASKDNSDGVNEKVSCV
- methodSummary: [3H]LSD competitive binding assay, wild type 5HT2A
testReadout: IC50 (nM)
Give just the numeric value; nM need not be written.

Could you please provide reported IC50 for CC(C)c1ccc(NC(=O)Nc2cccc(-c3nn(C)cc3Br)c2)cc1 [Compound 116110] ? Thanks!
338

----------
- System: human mutated 5HT2A receptor, AP-3
- methodSummary: Inositol phosphate (IP3) accumulation assay, AP-3
- Type: cell-based
- measurementParameters: preferred compounds tables (μM)
testReadout: IC50 (µM)
Give just the numeric value; µM need not be written.

                                inputsmiles  testreadout  valuemeasured
0  Cn1cc(Br)c(-c2cccc(NC(=O)OC(C)(C)C)c2)n1         IC50          0.057

State, for human mutated 5HT2A receptor, AP-3, measured IC50 of the compound listed here: "COc1ccc(OC(=O)Nc2cccc(-c3nn(C)cc3Br)c2)cc1"
0.0003
